# System: 786-0 renal
# Procedure Summary: NCI tumour cell line growth inhibition, 48 h; in the data active means GI50 below about 0.43 µM; inactive means the rest
Mark one answer only. Choices: 1 (yes) (active), 0 (no) (inactive)

Answered cases to consult:
{"Compound": "C[C@@H]1COCCN1c1cc(C2([S@@](C)(=N)=O)CC2)nc(-c2ccnc3[nH]ccc23)n1", "Class Name": "0 (no)"}
{"Compound": "CCOC(=O)c1cnn2c3ccccc3n(S(=O)(=O)c3ccc(OC)cc3)c12", "Class Name": "0 (no)"}
{"Compound": "Cc1ccc(-c2nc(-c3cn(C)c4ncccc34)cs2)cc1", "Class Name": "0 (no)"}
{"Compound": "CC1=C[C@H]2C[C@H](C)[C@H]3CC[C@H](C)[C@]4(C1)C(=O)C(O)=C(C)C(=O)[C@@]324", "Class Name": "0 (no)"}
{"Compound": "CC(=O)c1cc(C(=O)c2ccc3c(c2)Sc2ccccc2N3)c2c(C)cccn12", "Class Name": "0 (no)"}
{"Compound": "N#Cc1c(N)nc(NCc2ccccc2)c(C#N)c1-c1ccc(Cl)cc1Cl", "Class Name": "0 (no)"}
{"Compound": "COc1cc2c(=O)n(CCN(C)C)c3c4cc5c(cc4ccc3c2cc1OC)OCO5", "Class Name": "1 (yes)"}
{"Compound": "O=C(Nc1cc(Oc2cc(F)c(NC(=O)C3(C(=O)Nc4ccc(F)cc4)CC3)cc2F)ccn1)C1CC1", "Class Name": "0 (no)"}

Any idea what this test logged for O=c1cc(-c2ccccc2)oc2cc(OC/C(=N/O)c3ccc(F)cc3)ccc12 ? 0 (no)

Any idea what this test logged for CCS(=O)(=O)c1ccc(OC)c(Nc2ncc(-c3ccccc3Cl)o2)c1 ? 0 (no)

Any idea what this test logged for Cc1ccc(NCCN(C)C)c2c(=O)c3ccccc3sc12 ? 0 (no)

Any idea what this test logged for CN1CCN(Cc2ccc3c(NNC(=O)c4ccccc4)nc4cc(F)ccc4n23)CC1 ? 1 (yes)

Any idea what this test logged for O=C(/C=C/C12c3ccccc3C(c3ccccc31)C1C(=O)NC(=O)C12)c1ccc(Cl)cc1 (stereo not drawn) ? 0 (no)

Any idea what this test logged for Cc1ccc(-c2nc([P+](c3ccccc3)(c3ccccc3)c3ccccc3)c(Nc3ccccc3)o2)cc1 ? 0 (no)

Any idea what this test logged for COc1ccc(Nc2nc3cc(N)cc(N)c3nc2-c2ccccc2)cc1OC ? 0 (no)

Any idea what this test logged for CN(C)c1ccc(/C=c2/c3ccccc3n3c2c2cc(F)ccc2[n+]3C)cc1 ? 0 (no)

Any idea what this test logged for Nc1ccccc1C#C/C=C\C#Cc1c(F)c(F)c(F)c(F)c1F ? 0 (no)

Any idea what this test logged for COc1ccc(C(CC(=O)c2ccccc2)C(C(=O)c2ccccc2)C(c2ccc(OC)cc2)C2C(=O)NC(=S)NC2=O)cc1 (stereo not drawn) ? 0 (no)

---

# System: T-47D breast
# Procedure Summary: NCI tumour cell line growth inhibition, 48 h; in the data active means GI50 below about 0.43 µM; inactive means the rest
Mark one answer only. Choices: Yes = active, No = inactive

Answered cases to consult:
{"Molecule": "N#CN1CC[C@H](C(=O)Nc2cc3cc(C(N)=O)ccc3cn2)C1", "System": "T-47D breast", "Class Name": "Yes"}
{"Molecule": "NC(=Nc1ccc(N)cc1)C(N)=Nc1ccc(N)cc1", "System": "T-47D breast", "Class Name": "No"}
{"Molecule": "CCOC(=O)c1cnn2c3ccccc3n(S(=O)(=O)c3ccc(OC)cc3)c12", "System": "T-47D breast", "Class Name": "No"}

Continue with the next molecule.
Any idea what this test logged for O=C(NCc1ccco1)c1cccc(NC2=C(Cl)C(=O)N(Cc3ccccc3)C2=O)c1 ? No

---

# System: HT29 colon
# Procedure Summary: NCI tumour cell line growth inhibition, 48 h
Value Type: TGI

Each compound below has a recorded value; state its TGI.
1. O=C(Nc1ccccc1O)c1ccc(NS(=O)(=O)c2cccc3cccnc23)cc1
2. S=C(N1CCN(c2cccc(Cl)c2)CC1)N1CCN(c2cccc(Cl)c2)CC1
3. O=C(N/N=C/c1cc(Cl)cc(Cl)c1[O-])c1ccccc1.O=C(N/N=C/c1cc(Cl)cc(Cl)c1[O-])c1ccccc1.[Co+2]
4. C=CCOC(=O)C1CCC(=O)N1C(=O)C(Cl)Cl (stereo not given)
5. CCOC(=O)/C=C/C(=O)[C@H](CC(C)C)NC(=O)[C@H](Cc1ccccc1)NC(=O)OCc1ccccc1
6. CCOC(=O)C(C)c1nc2ccc(C(F)(F)F)cc2[nH]c1=O (stereo not given)
7. CCCC1(CCC)c2cc(/C=N\O)ccc2-c2ccc(-c3ccc(C(C)(C)C)cc3)cc21

> 16 µM
> 100 µM
> 100 µM
> 100 µM
38.6 µM
> 100 µM
> 100 µM

Each compound below has a recorded value; state its TGI.
1. COc1ccc(Cn2cc3c(c2-c2ccccc2)CCc2cnoc2-3)cc1N
2. Cc1cc(O)c(/C=N/C(=S)Nc2ccccc2)c(=O)o1
3. Cc1cccc(C)c1Nc1nc(C)c(C(=O)CC(=O)C(=O)Nc2c(C(C)C)cccc2C(C)C)s1

1: 15.1 µM; 2: > 100 µM; 3: > 100 µM

---

# Test system: LOX IMVI melanoma
# Procedure Summary: NCI tumour cell line growth inhibition, 48 h
Value Type: GI50

// worked examples, GI50 included
{"Molecule": "CC(=O)c1cc(C(=O)c2ccc3c(c2)Sc2ccccc2N3)c2c(C)cccn12", "GI50": "0.595 µM"}
{"Molecule": "Cc1ccc(NCCN(C)C)c2c(=O)c3ccccc3sc12", "GI50": "1.61 µM"}
{"Molecule": "O=C(/C=C/C12c3ccccc3C(c3ccccc31)C1C(=O)NC(=O)C12)c1ccc(Cl)cc1 (stereo not given)", "GI50": "1.6 µM"}
{"Molecule": "O=C(C[P+](c1ccccc1)(c1ccccc1)c1ccccc1)C[P+](c1ccccc1)(c1ccccc1)c1ccccc1", "GI50": "0.235 µM"}

Recall and state the measured GI50 for O=c1cc(-c2ccccc2)oc2cc(OC/C(=N/O)c3ccc(F)cc3)ccc12 . 20.8 µM

---

# System: OVCAR-3 ovarian
# Procedure Summary: NCI tumour cell line growth inhibition, 48 h
Value Type: TGI (µM)
Give bare numbers, in µM.

// worked examples, TGI included
{"Smiles Data": "COc1ccc(N(/C=C/C(=O)C(F)(F)F)CC(=O)c2ccc(Cl)cc2)cc1", "Output Unit": "µM", "TGI": 36.2}
{"Smiles Data": "Cc1c(C(N)=O)sc2c1c(=O)n(Cc1ccccc1)c1nnc(-c3ccc(Br)cc3)n21", "Output Unit": "µM", "TGI": 16.9}

The record that follows has no TGI shown yet.
Recall and state the measured TGI for Nc1ccc(-c2nc3ccccc3s2)cc1C#Cc1ccccc1 . 33.1

---

Kindly supply the reported TGI values for the records listed here.
# System: K-562 leukemia
# Procedure Summary: NCI tumour cell line growth inhibition, 48 h

// worked examples, TGI included
{"Molecule": "C/C=C/COC(=O)CO[N+](=O)[O-]", "TGI": "> 100 µM"}
{"Molecule": "O=S(=O)(Nc1ccc(F)c(Cl)c1)c1ccc(-c2cnc(C3CC3)o2)cc1", "TGI": "> 52.8 µM"}
{"Molecule": "CN1C(=O)CC2CCC(=O)N2c2cccnc21 (stereo not given)", "TGI": "> 100 µM"}
{"Molecule": "C=C1C(=O)O[C@H]2[C@H]1CC/C(COC(=O)NCCc1c[nH]c3ccc(Cl)cc13)=C\\CC[C@@]1(C)O[C@@H]21", "TGI": "5.95 µM"}
{"Molecule": "NC(=Nc1cccc(Cl)c1)c1ccccc1N", "TGI": "> 100 µM"}

Each molecule below has a recorded value; state its TGI.
1. NC(=Nc1ccc(N)cc1)C(N)=Nc1ccc(N)cc1
2. COc1ccc(C2C=C(c3ccc(Cl)cc3)N=C3SC=C(C)N32)c(Br)c1 (stereo not given)
3. O=C1c2ccccc2C(=O)c2c(NCC3CO3)ccc(NCC3CO3)c21 (stereo not given)
4. O=C(C[P+](c1ccccc1)(c1ccccc1)c1ccccc1)C[P+](c1ccccc1)(c1ccccc1)c1ccccc1
5. O=C(C/C(CCC(=O)N(Cc1ccccc1)Cc1ccccc1)=N/Nc1ccc([N+](=O)[O-])cc1[N+](=O)[O-])c1ccccc1

["> 100 µM", "> 100 µM", "> 100 µM", "7.49 µM", "> 100 µM"]

Each molecule below has a recorded value; state its TGI.
1. O=C(CCc1nnc2s/c(=C\c3ccccc3Cl)c(=O)n12)Nc1cc(Cl)ccc1Cl
2. COc1cc(C2c3cc4c(cc3[C@@H](Oc3ccc(F)cc3)C3COC(=O)[C@H]23)OCO4)cc(OC)c1O (stereo not given in full)
3. C=CCc1cc(C(Cc2ccccc2)NC(C)C)cc(OCc2ccccc2)c1OCc1ccccc1 (stereo not given)

1. > 100 µM
2. 30.4 µM
3. 40.9 µM

Each molecule below has a recorded value; state its TGI.
1. Cc1ccc2[nH]c3[nH]c(=S)[nH]c(=O)c3c2c1
2. COc1c2c(cc3c1C1(O)Cc4ccc5c(c4C[N+]1(C)CC3)OCO5)OCO2 (stereo not given)
3. C=CCN(c1cc(OC)c2[nH]c(C(=O)OCC)c(C)c2c1[N+](=O)[O-])S(C)(=O)=O
4. COC1OC(C)C2OC(C)(C)OC2C1OC(C)=O (stereo not given)
5. O=C(NNS(=O)(=O)c1ccccc1)c1cccnc1
6. COC1C2c3cc4c(cc3CC(C#N)(c3ccccc32)N1C(=O)c1ccccc1)OCO4 (stereo not given)
7. O=C(NCc1ccco1)c1cccc(NC2=C(Cl)C(=O)N(Cc3ccccc3)C2=O)c1
8. N#C/C(N)=C(\C#N)N=CNc1ccc(N)cc1

1. > 100 µM
2. > 100 µM
3. 31.4 µM
4. > 100 µM
5. > 100 µM
6. > 100 µM
7. > 100 µM
8. > 100 µM
